tested on: L1210 leukemia ip in BDF1 mice, survival T/C; experiment: NCI In Vivo Anticancer Drug Screen. Data for tumor model L1210 Leukemia (intraperitoneal) in B6D2F1 (BDF1) mice; conditions: endpoint: mean survival time; dose: 300.0 mg/kg/injection; schedule: Q01DX001 (ip); vehicle: saline; higher = longer survival
Toxic doses and inconclusive results are not listed.
parameter: T/C

[in] Recorded T/C for `CCCCCCC(=O)OCc1ccc(-c2ccccc2)cc1` , please?
[out] 92 % of control

Others:
[in] Recorded T/C for CC(C)(C)N1CCC1CN (stereo unspecified) , please?
[out] 102 % of control

[in] Now the compound `CC(=O)Nc1ccc(CCc2nc(N)nc(Cl)c2-c2ccc(Cl)cc2)cc1`
[out] 90 % of control

[in] Now the compound `Cc1cc(=O)cc(C(=O)O)o1`
[out] 109 % of control

[in] Now the compound `O=S([O-])c1ccc(Cl)cc1.O=S([O-])c1ccc(Cl)cc1.[Zn+2]`
[out] 110 % of control

[in] Now the compound `O/N=c1\ncn(O)c2nc[nH]c12`
[out] 93 % of control
